// Ratio lookup, one value per entry
- tested on: Serotonin 2 (5-HT2) receptor (Rattus norvegicus) (UniProt P30994+P08909+P14842)
- Sequence (P08909 whole entry, looked up): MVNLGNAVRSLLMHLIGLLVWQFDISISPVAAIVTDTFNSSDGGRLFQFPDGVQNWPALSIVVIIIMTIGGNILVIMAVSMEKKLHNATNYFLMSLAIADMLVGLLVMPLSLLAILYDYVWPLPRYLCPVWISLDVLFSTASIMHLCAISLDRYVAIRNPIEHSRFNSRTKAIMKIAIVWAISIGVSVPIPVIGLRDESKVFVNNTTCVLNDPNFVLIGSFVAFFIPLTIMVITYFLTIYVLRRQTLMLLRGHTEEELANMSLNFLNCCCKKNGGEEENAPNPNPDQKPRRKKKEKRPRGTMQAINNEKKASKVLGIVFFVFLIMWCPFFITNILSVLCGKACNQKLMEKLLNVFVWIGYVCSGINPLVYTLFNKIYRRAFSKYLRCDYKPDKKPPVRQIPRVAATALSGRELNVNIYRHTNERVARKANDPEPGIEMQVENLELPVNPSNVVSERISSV
- Sequence (P14842 whole entry, looked up): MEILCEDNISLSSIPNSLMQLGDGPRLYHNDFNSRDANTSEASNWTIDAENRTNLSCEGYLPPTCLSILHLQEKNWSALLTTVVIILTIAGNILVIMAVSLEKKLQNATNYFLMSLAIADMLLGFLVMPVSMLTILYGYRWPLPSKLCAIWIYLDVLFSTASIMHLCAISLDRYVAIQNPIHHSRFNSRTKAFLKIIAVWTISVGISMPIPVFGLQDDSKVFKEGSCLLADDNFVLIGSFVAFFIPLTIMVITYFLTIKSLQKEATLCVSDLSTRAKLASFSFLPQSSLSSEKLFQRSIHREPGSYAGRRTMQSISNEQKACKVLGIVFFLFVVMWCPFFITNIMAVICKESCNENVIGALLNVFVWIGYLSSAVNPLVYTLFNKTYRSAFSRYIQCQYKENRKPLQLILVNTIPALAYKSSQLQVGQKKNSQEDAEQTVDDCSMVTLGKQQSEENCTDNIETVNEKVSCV
- Sequence (P30994 whole entry, looked up): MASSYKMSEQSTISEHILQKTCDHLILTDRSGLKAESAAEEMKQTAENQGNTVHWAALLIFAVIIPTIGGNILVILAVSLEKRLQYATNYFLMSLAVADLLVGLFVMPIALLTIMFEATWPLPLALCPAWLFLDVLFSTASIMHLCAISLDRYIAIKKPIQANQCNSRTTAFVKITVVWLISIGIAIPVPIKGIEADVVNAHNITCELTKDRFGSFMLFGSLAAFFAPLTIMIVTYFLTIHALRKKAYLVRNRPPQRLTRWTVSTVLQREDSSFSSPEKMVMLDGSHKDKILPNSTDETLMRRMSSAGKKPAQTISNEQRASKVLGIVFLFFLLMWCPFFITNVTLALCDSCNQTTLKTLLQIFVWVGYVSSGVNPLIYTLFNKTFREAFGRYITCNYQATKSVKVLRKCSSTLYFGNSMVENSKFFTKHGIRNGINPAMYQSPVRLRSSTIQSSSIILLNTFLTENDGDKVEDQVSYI
- experiment description: Selectivity ratio for 5-HT1C compared to 5-HT2 receptors.
- Type: protein assay

{"molecule": "O=C(O)C(=O)O.O=c1[nH]c2ccccc2c(=O)n1CCN1CCC(C(O)c2ccccc2)CC1 (centres undefined)", "Ratio": "> 15"}
{"molecule": "O=C(c1ccccc1)C1CCNCC1", "Ratio": "> 3"}
{"molecule": "O=C(O)/C=C\\C(=O)O.O=c1[nH]c2ccccc2c(=O)n1CCNCCCCc1ccccc1", "Ratio": "> 50"}
{"molecule": "O=C(O)/C=C\\C(=O)O.O=c1[nH]c2ccccc2c(=O)n1CCNCCCc1ccccc1", "Ratio": "> 10"}

====

- tested on: UniProt P14842
- experiment description: Binding affinity against 5-hydroxytryptamine 2 receptor in rat using [3H]ketanserin as radioligand
# Lookup of reported Ki keyed by entry
observable: Ki

{"compound": "CCN1CCC(C(O)c2ccc(F)cc2)CC1.O=C(O)/C=C\\C(=O)O (centres undefined)", "result": "> 10 µM"}
{"compound": "c1ccc(CN2CCNCC2)cc1", "result": "> 10 µM"}
{"compound": "CN1CCN(C(=O)c2ccccc2)CC1", "result": "> 10 µM"}
{"compound": "Cl.O=c1[nH]c2ccccc2c(=O)n1CCN1CCCCC1", "result": "> 10 µM"}
{"compound": "CN1CCN(C(=O)c2ccc(F)cc2)CC1", "result": "> 10 µM"}
{"compound": "Cl.NCCn1c(=O)[nH]c2ccccc2c1=O", "result": "> 10 µM"}
{"compound": "CN(C)CCn1c(=O)[nH]c2ccccc2c1=O", "result": "> 10 µM"}
{"compound": "CN1CCN(Cc2ccc(F)cc2)CC1.Cl.Cl", "result": "> 10 µM"}
{"compound": "O=C(O)C(=O)O.O=c1[nH]c2ccccc2c(=O)n1CCN1CCC(Cc2ccc(F)cc2)CC1", "result": "0.012 µM"}
{"compound": "O=C(c1ccccc1)N1CCNCC1", "result": "> 10 µM"}
{"compound": "CN1CCN(CCn2c(=O)[nH]c3ccccc3c2=O)CC1.Cl.Cl", "result": "> 10 µM"}
{"compound": "O=C(O)C(=O)O.O=C(c1ccc(F)cc1)C1CCN(CCCc2ccccc2)CC1", "result": "0.016 µM"}
{"compound": "Cl.O=C(CCCN1CCC(C(=O)c2ccc(F)cc2)CC1)c1ccccc1", "result": "0.0065 µM"}
{"compound": "O=C(O)C(=O)O.O=C(c1ccc(F)cc1)C1CCN(Cc2ccccc2)CC1", "result": "0.025 µM"}
